Test: Cytotoxicity against human HET-1A cells assessed as cell viability at 500 uM after 24 hrs by MTT assay relative to control
Type: cell-based
// reported viability at 24 h, 500 µM per item
Quick note: give the figure in %, leave out the unit.

>  <smiles string>
C[C@H](CCC(=O)O)[C@H]1CC[C@H]2[C@@H]3CC[C@@H]4C[C@H](O)CC[C@]4(C)[C@H]3C[C@H](O)[C@]12C

>  <viability at 24 h, 500 µM, %>
41.2

$$$$

Suppose we examine the compound C[C@H](CCC(=O)O)[C@H]1CC[C@H]2[C@@H]3C[C@H](O)[C@@H]4C[C@H](O)CC[C@]4(C)[C@H]3CC[C@]12C ; what viability at 24 h, 500 µM value has been reported? 88.2

Suppose we examine the compound C[C@H](CCC(=O)NCC(=O)O)[C@H]1CC[C@H]2[C@@H]3[C@H](O)C[C@@H]4C[C@H](O)CC[C@]4(C)[C@H]3C[C@H](O)[C@]12C ; what viability at 24 h, 500 µM value has been reported? 105

Suppose we examine the compound CC(=O)O[C@@H]1CC[C@@]2(C)[C@H](CC(=O)[C@@H]3[C@@H]2CC[C@]2(C)[C@@H]([C@H](C)CCC(=O)O)CC[C@@H]32)C1 ; what viability at 24 h, 500 µM value has been reported? 47.2

Suppose we examine the compound C[C@H](CCC(=O)O)[C@H]1CC[C@H]2[C@@H]3C(=O)C[C@@H]4C[C@H](O)CC[C@]4(C)[C@H]3CC[C@]12C ; what viability at 24 h, 500 µM value has been reported? 76.9

Suppose we examine the compound C[C@H](CCC(=O)O)[C@H]1CC[C@H]2[C@@H]3CC[C@@H]4C[C@H](O)CC[C@]4(C)[C@H]3CC[C@]12C ; what viability at 24 h, 500 µM value has been reported? 41.7

Suppose we examine the compound C[C@H](CCC(=O)O)[C@H]1CC[C@H]2[C@@H]3[C@@H](O)C[C@@H]4C[C@H](N=[N+]=[N-])CC[C@]4(C)[C@H]3CC[C@]12C ; what viability at 24 h, 500 µM value has been reported? 36.8

Suppose we examine the compound C[C@H](CCC(=O)O)[C@H]1CC[C@H]2[C@@H]3CC[C@@H]4C[C@H](O)CC[C@]4(C)[C@H]3CC(=O)[C@]12C ; what viability at 24 h, 500 µM value has been reported? 81.8

Suppose we examine the compound C[C@H](CCCO)[C@H]1CC[C@H]2[C@@H]3[C@@H](O)C[C@@H]4C[C@H](O)CC[C@]4(C)[C@H]3CC[C@]12C ; what viability at 24 h, 500 µM value has been reported? 97.5

###

Experiment: Cytotoxicity against human HET-1A cells assessed as cell viability after 24 hrs by MTT assay
Type: cell-based
// reported CC50 at 24 h per item
Quick note: give the figure in µM, leave out the unit.

>  <compound>
C[C@H](C(=O)O)[C@H]1CC[C@H]2[C@@H]3[C@@H](O)C[C@@H]4C[C@H](O)CC[C@]4(C)[C@H]3CC[C@]12C

>  <CC50 at 24 h / µM>
799

$$$$
>  <compound>
C[C@H](CCC(=O)NCC(=O)O)[C@H]1CC[C@H]2[C@@H]3CC[C@@H]4C[C@H](O)CC[C@]4(C)[C@H]3C[C@H](O)[C@]12C [GLYCODEOXYCHOLATE]

>  <CC50 at 24 h / µM>
1240

$$$$
>  <compound>
C[C@H](CCCN=[N+]=[N-])[C@H]1CC[C@H]2[C@@H]3[C@@H](O)C[C@@H]4C[C@H](O)CC[C@]4(C)[C@H]3CC[C@]12C

>  <CC50 at 24 h / µM>
688

$$$$
>  <compound>
COC(=O)CC[C@@H](C)[C@H]1CC[C@H]2[C@@H]3CC[C@@H]4C[C@H](O)CC[C@]4(C)[C@H]3C[C@H](O)[C@]12C [METHYL DEOXYCHOLATE]

>  <CC50 at 24 h / µM>
46

$$$$
>  <compound>
C[C@H](CCC(=O)O)[C@H]1CC[C@H]2[C@@H]3CC[C@@H]4C[C@H](O)CC[C@]4(C)[C@H]3C[C@H](O)[C@]12C [DEOXYCHOLIC ACID]

>  <CC50 at 24 h / µM>
257

$$$$

Suppose we examine the compound C[C@H](CCC(=O)O)[C@H]1CC[C@H]2[C@@H]3CC[C@@H]4C[C@H](O)CC[C@]4(C)[C@H]3C[C@@H](O)[C@]12C [LAGODEOXYCHOLATE] ; what CC50 at 24 h value has been reported? 389

Suppose we examine the compound C[C@H](CCC(=O)O)[C@H]1CC[C@H]2[C@@H]3[C@H](O)C[C@@H]4C[C@H](O)CC[C@]4(C)[C@H]3C[C@H](O)[C@]12C [CHOLIC ACID] ; what CC50 at 24 h value has been reported? 1080

Suppose we examine the compound C[C@H](CCC(=O)O)[C@H]1CC[C@H]2[C@@H]3[C@H](O)C[C@@H]4C[C@H](O)CC[C@]4(C)[C@H]3CC[C@]12C [CHENODIOL] ; what CC50 at 24 h value has been reported? 216

Suppose we examine the compound C[C@H](CCC(=O)O)[C@H]1CC[C@H]2[C@@H]3[C@@H](O)C[C@@H]4CCCC[C@]4(C)[C@H]3CC[C@]12C ; what CC50 at 24 h value has been reported? 30

Suppose we examine the compound C[C@H](CCC(=O)O)[C@H]1CC[C@H]2[C@@H]3[C@@H](N=[N+]=[N-])C[C@@H]4C[C@H](O)CC[C@]4(C)[C@H]3CC[C@]12C ; what CC50 at 24 h value has been reported? 99
